Kindly supply the reported Activity values for the records listed here.
System: Plasmodium berghei
Assay: Reduced parasitemia in Plasmodium berghei infected NMRI mice (Mus musculus)
Assay type: functional
Parameters: concentration or dose not given beside the values
One number for each entry, in %.

C[C@H]1[C@@H](CC2(C[C@H]3O[C@@H]4O[C@]5(C)CC[C@H]6[C@H](C)CC[C@@H]([C@H]3C)[C@@]46OO5)COC3(CCN(C(=O)c4ccccc4)CC3)O2)O[C@@H]2O[C@]3(C)CC[C@H]4[C@H](C)CC[C@@H]1[C@@]24OO3 (some centres not stated); 99

Please turn your attention to the following entry.
## Input Consider the compound C[C@H]1[C@@H](CC(O)(COCc2ccncc2)C[C@H]2O[C@@H]3O[C@]4(C)CC[C@H]5[C@H](C)CC[C@@H]([C@H]2C)[C@@]35OO4)O[C@@H]2O[C@]3(C)CC[C@H]4[C@H](C)CC[C@@H]1[C@@]24OO3 (some centres not stated) and give its measured Activity.
## Output 99.2
